- System: C. albicans
- Protocol description: Minimum inhibitory concentration broth double-dilution assay
- Type: cell-based, Candida albicans
- Test settings: #7 C. albicans T-2076 (DP-194); 24 h, 30 °C
*1 amine or outer side, *2 acyl side, *3 side chain or, on linkers, in order; H or OH if unused. Where a SMILES comes first, the peptide text is derived from it. Bridges are numbered along the chain shown (N, C = ends). [ ]: non-standard residue; d: D form. The star is where a group is joined. Orn(4R-OH,5R-OCH2CH2NMe3+) = C[N+](C)(C)CCO[C@@H](N[*:3])[C@H](O)C[C@H](N[*:1])C(=O)[*:2]; pTerphenylCO(4''-OnC5H11) = CCCCCOc1ccc(-c2ccc(-c3ccc(C(=O)*)cc3)cc2)cc1; Orn(4R-OH,5R-OH) = O=C([C@H](C[C@@H](O)[C@@H](O)N[*:3])N[*:1])[*:2]; hTyr(3S-OH,4S-OH) = N[C@H](C(=O)O)[C@H](O)[C@@H](O)c1ccc(O)cc1; Pro(3S-OH,4S-Me) = C[C@H]1CN[C@H](C(=O)O)[C@H]1O; hTyr(3R-OH) = N[C@H](C(=O)O)[C@H](O)Cc1ccc(O)cc1; Hyp = O=C(O)[C@@H]1C[C@@H](O)CN1
Readout name: MIC (µg/mL)
Kindly provide the numeric value in µg/mL only, without the unit symbol.

{"columns": ["Compound", "MIC, µg/mL"],
 "data": [
  ["CCCCCOc1ccc(-c2ccc(-c3ccc(C(=O)N[C@H]4C[C@@H](O)[C@@H](OCC[N+](C)(C)C)NC(=O)[C@@H]5[C@@H](O)[C@@H](C)CN5C(=O)[C@H]([C@@H](C)O)NC(=O)[C@H]([C@H](O)Cc5ccc(O)cc5)NC(=O)[C@@H]5C[C@@H](O)CN5C(=O)[C@H]([C@@H](C)O)NC4=O)cc3)cc2)cc1 [Compound 2, dehydroxy-RZF] ({pTerphenylCO(4''-OnC5H11)}-[Orn(4R-OH,5R-OCH2CH2NMe3+)]T[Hyp][hTyr(3R-OH)]T[Pro(3S-OH,4S-Me)]; lactam 1-C)", 1]
]}

Challenge: Fill in: MIC of CCCCCOc1ccc(-c2ccc(-c3ccc(C(=O)N[C@H]4C[C@@H](O)[C@@H](O)NC(=O)[C@@H]5[C@@H](O)[C@@H](C)CN5C(=O)[C@H]([C@@H](C)O)NC(=O)[C@H]([C@H](O)Cc5ccc(O)cc5)NC(=O)[C@@H]5C[C@@H](O)CN5C(=O)[C@H]([C@@H](C)O)NC4=O)cc3)cc2)cc1 [Compound 1, dehydroxy-ANF] ({pTerphenylCO(4''-OnC5H11)}-[Orn(4R-OH,5R-OH)]T[Hyp][hTyr(3R-OH)]T[Pro(3S-OH,4S-Me)]; lactam 1-C) is ___
Response given: 0.5

Challenge: Would you kindly repeat that for CC[C@H](C)C[C@H](C)CCCCCCCCC(=O)N[C@H]1C[C@@H](O)[C@@H](NCCN)NC(=O)[C@@H]2[C@@H](O)CCN2C(=O)[C@H]([C@H](O)CCN)NC(=O)[C@H]([C@H](O)[C@@H](O)c2ccc(O)cc2)NC(=O)[C@@H]2C[C@@H](O)CN2C(=O)[C@H]([C@@H](C)O)NC1=O ?
Response given: 1

Challenge: Input CCCCCOc1ccc(-c2ccc(-c3ccc(C(=O)N[C@H]4C[C@@H](O)[C@@H](OCC[N+](C)(C)C)NC(=O)[C@@H]5[C@@H](O)[C@@H](C)CN5C(=O)[C@H]([C@@H](C)O)NC(=O)[C@H]([C@H](O)[C@@H](O)c5ccc(O)cc5)NC(=O)[C@@H]5C[C@@H](O)CN5C(=O)[C@H]([C@@H](C)O)NC4=O)cc3)cc2)cc1 [RZF, rezafungin] ({pTerphenylCO(4''-OnC5H11)}-[Orn(4R-OH,5R-OCH2CH2NMe3+)]T[Hyp][hTyr(3S-OH,4S-OH)]T[Pro(3S-OH,4S-Me)]; lactam 1-C)
Response given: 1

Challenge: And the next one, CCCCCOc1ccc(-c2ccc(-c3ccc(C(=O)N[C@H]4C[C@@H](O)[C@@H](O)NC(=O)[C@@H]5[C@@H](O)[C@@H](C)CN5C(=O)[C@H]([C@@H](C)O)NC(=O)[C@H]([C@H](O)[C@@H](O)c5ccc(O)cc5)NC(=O)[C@@H]5C[C@@H](O)CN5C(=O)[C@H]([C@@H](C)O)NC4=O)cc3)cc2)cc1 [ANF, anidulafungin] ({pTerphenylCO(4''-OnC5H11)}-[Orn(4R-OH,5R-OH)]T[Hyp][hTyr(3S-OH,4S-OH)]T[Pro(3S-OH,4S-Me)]; lactam 1-C) ?
Response given: 0.5

---

- Tested on: C. glabrata
- Protocol description: Minimum inhibitory concentration broth double-dilution assay
- Type: cell-based, Candida glabrata
- Test settings: #23 C. glabrata TGL00270; 24 h, 30 °C
*1 amine or outer side, *2 acyl side, *3 side chain or, on linkers, in order; H or OH if unused. Where a SMILES comes first, the peptide text is derived from it. Bridges are numbered along the chain shown (N, C = ends). [ ]: non-standard residue; d: D form. The star is where a group is joined. Orn(4R-OH,5R-OCH2CH2NMe3+) = C[N+](C)(C)CCO[C@@H](N[*:3])[C@H](O)C[C@H](N[*:1])C(=O)[*:2]; hTyr(3S-OH,4S-OH,3'-OSO3H) = N[C@H](C(=O)O)[C@H](O)[C@@H](O)c1ccc(O)c(OS(=O)(=O)O)c1; pTerphenylCO(4''-OnC5H11) = CCCCCOc1ccc(-c2ccc(-c3ccc(C(=O)*)cc3)cc2)cc1; Orn(4R-OH,5R-OH) = O=C([C@H](C[C@@H](O)[C@@H](O)N[*:3])N[*:1])[*:2]; hTyr(3S-OH,4S-OH) = N[C@H](C(=O)O)[C@H](O)[C@@H](O)c1ccc(O)cc1; Pro(3S-OH,4S-Me) = C[C@H]1CN[C@H](C(=O)O)[C@H]1O; X1 = CCCCCOc1ccc(-c2cc(-c3ccc(C(=O)*)cc3)no2)cc1; hTyr(3R-OH) = N[C@H](C(=O)O)[C@H](O)Cc1ccc(O)cc1; Gln(3R-OH) = NC(=O)C[C@@H](O)[C@H](N)C(=O)O; Hyp = O=C(O)[C@@H]1C[C@@H](O)CN1
Readout name: MIC

Some molecules with known MIC results, for comparison:
{"columns": ["Molecule", "Measured on", "Value observed"],
 "data": [
  ["CCCCCOc1ccc(-c2ccc(-c3ccc(C(=O)N[C@H]4C[C@@H](O)[C@@H](O)NC(=O)[C@@H]5[C@@H](O)[C@@H](C)CN5C(=O)[C@H]([C@@H](C)O)NC(=O)[C@H]([C@H](O)[C@@H](O)c5ccc(O)cc5)NC(=O)[C@@H]5C[C@@H](O)CN5C(=O)[C@H]([C@@H](C)O)NC4=O)cc3)cc2)cc1 [ANF, anidulafungin] ({pTerphenylCO(4''-OnC5H11)}-[Orn(4R-OH,5R-OH)]T[Hyp][hTyr(3S-OH,4S-OH)]T[Pro(3S-OH,4S-Me)]; lactam 1-C)", "C. glabrata", "4 µg/mL"],
  ["CC[C@H](C)C[C@H](C)CCCCCCCCC(=O)N[C@H]1C[C@@H](O)[C@@H](NCCN)NC(=O)[C@@H]2[C@@H](O)CCN2C(=O)[C@H]([C@H](O)CCN)NC(=O)[C@H]([C@H](O)[C@@H](O)c2ccc(O)cc2)NC(=O)[C@@H]2C[C@@H](O)CN2C(=O)[C@H]([C@@H](C)O)NC1=O [CSF, caspofungin]", "C. glabrata", "> 64 µg/mL"],
  ["CCCCCOc1ccc(-c2ccc(-c3ccc(C(=O)N[C@H]4C[C@@H](O)[C@@H](OCC[N+](C)(C)C)NC(=O)[C@@H]5[C@@H](O)[C@@H](C)CN5C(=O)[C@H]([C@@H](C)O)NC(=O)[C@H]([C@H](O)[C@@H](O)c5ccc(O)cc5)NC(=O)[C@@H]5C[C@@H](O)CN5C(=O)[C@H]([C@@H](C)O)NC4=O)cc3)cc2)cc1 [RZF, rezafungin] ({pTerphenylCO(4''-OnC5H11)}-[Orn(4R-OH,5R-OCH2CH2NMe3+)]T[Hyp][hTyr(3S-OH,4S-OH)]T[Pro(3S-OH,4S-Me)]; lactam 1-C)", "C. glabrata", "> 64 µg/mL"],
  ["CCCCCOc1ccc(-c2ccc(-c3ccc(C(=O)N[C@H]4C[C@@H](O)[C@@H](OCC[N+](C)(C)C)NC(=O)[C@@H]5[C@@H](O)[C@@H](C)CN5C(=O)[C@H]([C@@H](C)O)NC(=O)[C@H]([C@H](O)Cc5ccc(O)cc5)NC(=O)[C@@H]5C[C@@H](O)CN5C(=O)[C@H]([C@@H](C)O)NC4=O)cc3)cc2)cc1 [Compound 2, dehydroxy-RZF] ({pTerphenylCO(4''-OnC5H11)}-[Orn(4R-OH,5R-OCH2CH2NMe3+)]T[Hyp][hTyr(3R-OH)]T[Pro(3S-OH,4S-Me)]; lactam 1-C)", "C. glabrata", "4 µg/mL"],
  ["CCCCCOc1ccc(-c2ccc(-c3ccc(C(=O)N[C@H]4C[C@@H](O)[C@@H](O)NC(=O)[C@@H]5[C@@H](O)[C@@H](C)CN5C(=O)[C@H]([C@@H](C)O)NC(=O)[C@H]([C@H](O)Cc5ccc(O)cc5)NC(=O)[C@@H]5C[C@@H](O)CN5C(=O)[C@H]([C@@H](C)O)NC4=O)cc3)cc2)cc1 [Compound 1, dehydroxy-ANF] ({pTerphenylCO(4''-OnC5H11)}-[Orn(4R-OH,5R-OH)]T[Hyp][hTyr(3R-OH)]T[Pro(3S-OH,4S-Me)]; lactam 1-C)", "C. glabrata", "1 µg/mL"]
]}

Challenge: Query the reported MIC for C. glabrata; item: CCCCCOc1ccc(-c2cc(-c3ccc(C(=O)N[C@H]4C[C@@H](O)[C@@H](O)NC(=O)[C@@H]5[C@@H](O)[C@@H](C)CN5C(=O)[C@H]([C@H](O)CC(N)=O)NC(=O)[C@H]([C@H](O)[C@@H](O)c5ccc(O)c(OS(=O)(=O)O)c5)NC(=O)[C@@H]5C[C@@H](O)CN5C(=O)[C@H]([C@@H](C)O)NC4=O)cc3)no2)cc1 [MCF, micafungin] (X1-[Orn(4R-OH,5R-OH)]T[Hyp][hTyr(3S-OH,4S-OH,3'-OSO3H)][Gln(3R-OH)][Pro(3S-OH,4S-Me)]; lactam 1-C)
Response given: 16 µg/mL
